pKi: −log10 of the molar value.
What follows is literature data on pKi for Tyrosine-protein kinase JAK3 (Homo sapiens, UniProt P52333).

Example entries begin here.
# compound, pKi
measured = [
    ("C[C@@H](Nc1nc(-c2c[nH]c3ncncc23)ncc1F)C(=O)N(C)CC(F)(F)F", "> 6.30"),
    ("C#CC(CC)Oc1nc(N[C@@H](C)c2ccc(F)cc2)cc(-c2c(N)nn3cccnc23)n1 (some centres unmarked)", "6.30 to 7.00"),
    ("Nc1nn2cc(-c3cccc(C(=O)N4CCCC(O)C4)n3)cnc2c1-c1ccccn1 (centres unmarked)", "< 5.30"),
]

Fill in: Tyrosine-protein kinase JAK3 (Homo sapiens, UniProt P52333) pKi for "CC(C)[C@@H](Nc1cc(-c2c(N)nn3cccnc23)nc(S(C)(=O)=O)n1)c1ccc(F)cc1F" = 5.30 to 6.30

----------
What follows is literature data on Ki for UniProtKB P52333.

Example entries begin here.
# compound, Ki
data = [
    ("CC(C)CN(C)C(=O)c1ccc(-c2cnc3c(-c4ccccn4)c(N)nn3c2)nc1", "500 to 5000 nM"),
    ("Nc1nn2cc(-c3ccncc3)cnc2c1-c1ccccc1", "> 5000 nM"),
    ("C(=C\\c1ncnc2[nH]ccc12)/c1ccccc1", "< 500 nM"),
    ("Cc1cnc2c(-c3cc(N4CCCC4C)ncn3)c(N)nn2c1 (centres unmarked)", "< 500 nM"),
    ("COC(=O)Nc1ccc(C2c3cn(C(=O)OC)c4nccc(c34)-c3ccccc3N2C(=O)OC)cc1 (centres unmarked)", "> 2500 nM"),
    ("CC(C)n1cc(-c2ncnc3[nH]ccc23)cn1", "< 100 nM"),
    ("CN1CCC(c2cnc3[nH]cc(-c4oncc4-c4cccc(F)c4F)c3c2)CC1", "1000 to 12500 nM"),
]

# next compound below
Noted for "CC(=O)N1CCCN(c2cc(-n3cnc(Nc4ccccc4)n3)ccn2)CC1" : its Ki reads 10 to 1000 nM

----------
What follows is literature data on Ki for Tyrosine-protein kinase JAK3 (Homo sapiens, UniProt P52333).

# compoundStructureString, measuredQuantity, measuredResult
rows = [
    ("c1ccc(-n2cnc(Nc3ccc(N4CCOCC4)nc3)n2)cc1", "Ki", "> 1 µM"),
    ("CC(C)[C@@H](Nc1nc(-c2c[nH]c(C(=O)NC3CC3)c2)ncc1F)C(=O)NCC(F)(F)F", "Ki", "10 to 50 µM"),
    ("Cc1cc(C)cc(Nc2nccc(-c3ccc4c(c3)N(Cc3ccncc3)C(=O)CO4)n2)c1", "Ki", "< 5 µM"),
    ("CN1C(=O)COc2ccc(-c3ccnc(Nc4cccc(C#N)c4)n3)cc21", "Ki", "< 5 µM"),
    ("CC(C)N1CCN(CCCc2cnc3c(-c4ccccn4)c(N)nn3c2)CC1", "Ki", "> 5 µM"),
    ("O=C(NCC(F)(F)F)C1(Nc2nc(-c3c[nH]c4ncncc34)ncc2F)CC1", "Ki", "< 0.5 µM"),
    ("C[C@H](Nc1cc(-c2ccccc2)nc(-c2c[nH]c3ncncc23)n1)C(=O)NCC(F)(F)F", "Ki", "< 0.5 µM"),
]

# next molecule below
Fill in: Tyrosine-protein kinase JAK3 (Homo sapiens, UniProt P52333) Ki for "Fc1cccc(-n2cnnc2-c2c[nH]c3ncc(-c4ccc(N5CCOCC5)nc4)cc23)c1F" = 1 to 12.5 µM

----------
pKi: −log10 of the molar value.
What follows is literature data on pKi for Tyrosine-protein kinase JAK3 (Homo sapiens).

Example entries begin here.
# molecule, pKi
measured = [
    ("CCOC(=O)c1ccc(Nc2ncn(-c3ccnc(N4C[C@@H](C)N(C(C)=O)[C@@H](C)C4)c3)n2)cc1", "6.00 to 8.00"),
    ("OCCCCC1Nc2ccccc2-c2ccnc3[nH]cc1c23 (centres unmarked)", "< 5.60"),
    ("C[C@H](Nc1cc(-c2c(N)nn3cccnc23)nc(C#N)n1)c1ccc(F)cc1F", "> 8.00"),
]

Fill in: Tyrosine-protein kinase JAK3 (Homo sapiens) pKi for CC(C)(C)c1cc(C2Nc3ccccc3-c3ccnc4[nH]cc2c34)cc(C(C)(C)C)c1O (centres unmarked) = < 5.60

Fill in: Tyrosine-protein kinase JAK3 (Homo sapiens) pKi for "Nc1nn2cc(-c3ccncn3)cnc2c1C(=O)O" = < 5.30

Fill in: Tyrosine-protein kinase JAK3 (Homo sapiens) pKi for "C[C@H](Nc1cc(-c2c(N)nn3cccnc23)nc(NCCN2CCOCC2)n1)c1ccc(F)cc1" = 7.00 to 8.00

Fill in: Tyrosine-protein kinase JAK3 (Homo sapiens) pKi for "c1nc(C2CCCC2)c2cc[nH]c2n1" = 5.30 to 6.30

Fill in: Tyrosine-protein kinase JAK3 (Homo sapiens) pKi for "CCC(=O)N1CCCN(c2cc(-n3cnc(Nc4ccccc4)n3)ccn2)CC1" = 6.00 to 8.00

----------
What follows is literature data on pKi for Tyrosine-protein kinase JAK3 (Homo sapiens).
pKi: −log10 of the molar value.

# compound, measuredResult
measured = [
    ("Cn1cc(-c2ncnc3[nH]ccc23)cc1C(=O)N(CC1CC1)CC(F)(F)F", "> 7.00"),
    ("C[C@H](Nc1cc(-c2c(N)nn3cccnc23)nc(OCCC2CC2)n1)c1ccc(F)cc1", "6.30 to 7.00"),
    ("C1=C(c2ncnc3[nH]ccc23)CCCCC1", "> 6.30"),
    ("CCN(CC)CCOc1nc(N[C@@H](C)c2ccc(F)cc2F)cc(-c2cnn3cccnc23)n1", "7.00 to 8.00"),
    ("C=C(c1ccccc1)c1ncnc2[nH]ccc12", "5.30 to 6.30"),
]

Noted for O=C(c1cc(-c2ncnc3[nH]ccc23)c[nH]1)N1CCCC1CO (centres unmarked) : its pKi reads 5.30 to 6.30

Noted for "Fc1cc(F)c(F)c(-c2cnoc2-c2c[nH]c3ncccc23)c1" : its pKi reads 6.00 to 6.70

Noted for "CCC[C@H](Nc1cc(-c2c(N)nn3ccc(C(F)(F)F)nc23)ncn1)c1ccc(F)cc1F" : its pKi reads 6.30 to 7.00

Noted for "CN(CC(F)(F)F)C(=O)[C@H]1CCCN1c1nc(-c2c[nH]c3ncc(Cl)cc23)ncc1O" : its pKi reads ≤ 7.00

----------
pKi: −log10 of the molar value.
What follows is literature data on pKi for Tyrosine-protein kinase JAK3 (Homo sapiens, UniProt P52333).

Example entries begin here.
# compoundStructureString, measuredResult
data = [
    ("N#CCCN(CCC(F)(F)F)C(=O)c1cc(-c2ncnc3[nH]cc(Cl)c23)c[nH]1", "> 7.00"),
    ("Nc1nn2cccnc2c1-c1cc(N[C@@H]2CCCc3ccccc32)ncn1", "6.30 to 7.00"),
    ("Cc1n[nH]c(C)c1-c1cnc2c(-c3ccccn3)c(N)nn2c1", "< 5.30"),
]

Fill in: Tyrosine-protein kinase JAK3 (Homo sapiens, UniProt P52333) pKi for "Nc1nn2cc(-c3ccnc(N4CCN(Cc5ccccc5)CC4)c3)cnc2c1-c1ccccn1" = < 5.30

----------
What follows is literature data on pKi for Tyrosine-protein kinase JAK3 (Homo sapiens, UniProt P52333).
pKi: −log10 of the molar value.

Example entries begin here.
# molecule, pKi
measured = [
    ("Nc1ncccc1-c1ncc(F)c(N2CC(C(=O)NCC(F)(F)F)C2)n1", "5.00 to 6.00"),
    ("Nc1ccc(C2Nc3ccccc3-c3ccnc4[nH]cc2c34)cc1 (centres unmarked)", "≥ 6.60"),
    ("Nc1cccc(Nc2nccc(-c3ccc(NC(=O)CN4CCOCC4)cc3)n2)c1", "≥ 6.00"),
]

Fill in: Tyrosine-protein kinase JAK3 (Homo sapiens, UniProt P52333) pKi for "Nc1cccc(Nc2nccc(-c3ccc(NC(=O)c4cccs4)cc3)n2)c1" = ≥ 6.00

Fill in: Tyrosine-protein kinase JAK3 (Homo sapiens, UniProt P52333) pKi for C[C@H](Nc1cc(-c2cnn3cccnc23)nc(OCC2CCCNC2)n1)c1ccc(F)cc1F (some centres unmarked) = 7.00 to 8.00

----------
What follows is literature data on Ki for Tyrosine-protein kinase JAK3 (Homo sapiens, UniProt P52333).

Example entries begin here.
# molecule, Ki
measured = [
    ("Nc1nn2cc(-c3ccc(C(=O)N4CCSCC4)cn3)cnc2c1-c1ccccn1", "500 to 5000 nM"),
    ("CN1CCC(N(C)C(=O)c2cccc(-c3cnc4c(-c5ccccn5)c(N)nn4c3)n2)CC1", "> 5000 nM"),
]

Noted for "CC(C)(Nc1nc(-c2c[nH]c3ccc(Cl)cc23)ncc1F)C(=O)NCC(F)(F)F" : its Ki reads 1000 to 10000 nM

Noted for "COc1ccc(-c2cnc3c(C#N)c(N)nn3c2)cc1" : its Ki reads > 5000 nM

Noted for CC(C)C1Nc2ccccc2-c2ccnc3[nH]cc1c23 (centres unmarked) : its Ki reads > 2500 nM

Noted for "Fc1cnc(-c2c[nH]c3ncncc23)nc1N1CCCC1" : its Ki reads 500 to 5000 nM

Noted for "O=C(CCNc1nc(-c2cccnc2)ncc1F)NCC(F)(F)F" : its Ki reads 10000 to 50000 nM

Noted for CC(C)(C)C1Nc2ccccc2-c2ccnc3[nH]cc1c23 (centres unmarked) : its Ki reads 250 to 2500 nM

Noted for COc1cc(C2Nc3ccccc3-c3ccnc4[nH]cc2c34)cc(O)c1O (centres unmarked) : its Ki reads ≤ 250 nM

Noted for CCC(CO)NC(=O)C(C)n1cc(-c2ncnc3[nH]ccc23)cn1 (centres unmarked) : its Ki reads 100 to 500 nM

Noted for "Cn1cc(-c2ncnc3[nH]ccc23)cc1C(=O)NCC(F)(F)F" : its Ki reads < 100 nM
